assay: Oral bioavailability in rat at 10 mg/kg; format: ADME, organism-based; settings: in vivo
Kindly state bioavailability for each of the entries shown.

According to the records, this compound N[C@H](C(=O)Nc1cncc(F)c1CC[C@@H]1CN[C@H](COC(=O)NCC(F)(F)F)CO1)C(c1ccccc1)c1ccccc1 displays bioavailability of 59%

bioavailability reported for this compound N[C@H](C(=O)Nc1cccc(F)c1CC[C@@H]1CN[C@H](COC(=O)NCC(F)(F)F)CO1)[C@@H](c1ccc(F)cc1)c1cccc(F)c1 : 30%

Summary for this compound, N[C@H](C(=O)Nc1cncc(F)c1CC[C@@H]1CN[C@H](COC(=O)NCC(F)(F)F)CO1)[C@@H](c1ccc(Cl)cc1)c1cc(F)cc(F)c1 : bioavailability is 25%

bioavailability measured on N[C@H](C(=O)Nc1cncc(F)c1CC[C@@H]1CN[C@H](COC(=O)NCC(F)(F)F)CO1)[C@@H](c1ccc(F)cc1)c1cccc(F)c1 = 37%

The compound identified as N[C@H](C(=O)Nc1cccc(F)c1CC[C@@H]1CN[C@H](COC(=O)NCC(F)(F)F)CO1)[C@@H](c1ccc(F)cc1)c1cc(F)cc(F)c1 registered its bioavailability at 14%
